Hello, the source for this data is ChEMBL document CHEMBL1201862, in case you need it.

- Test system: HOP-62
- TEST METHOD NOTES: NCI tumour cell line growth inhibition, 48 h
Active and inactive are the calls of the source. Cut-off read from the data, not from the text of the source: active = GI50 up to about 1.1 µM and inactive = higher. Where a SMILES comes first, the peptide text is derived from it. [ ]: non-standard residue; d: D form. The star is where a group is joined. Cbz = O=C(OCc1ccccc1)*; Aib = CC(C)(N)C(=O)O; OBn = c1ccc(CO*)cc1
The categories you may choose from are T = active, F = inactive

MOLECULE: CCCCCCCCCCCC1CCCC(C)N1 (stereo unspecified)
STUDY TARGET: HOP-62
ASSIGNED LABEL: F

Query: recorded result category for CC(NC(=O)C(C)(C)NC(=O)C(CC(=O)OCc1ccccc1)NC(=O)OCc1ccccc1)C(N)=O (stereo unspecified) (Cbz-Asp(OBn)-[Aib]-Ala-NH2; configuration not given here) in this test
F

Query: recorded result category for CCOC(=O)C1S/C(=N\c2ccc(Cl)cc2)N=C1C (stereo unspecified) in this test
F

Query: recorded result category for C/C(CC(=O)Nc1ccc([N+](=O)[O-])cc1)=N\Nc1ccc([N+](=O)[O-])cc1[N+](=O)[O-] in this test
F

Query: recorded result category for O=C(CC(=O)Nc1cccc(Cl)c1)NNCC(=O)Nc1nnc(-c2ccccc2)s1 in this test
F

Query: recorded result category for c1ccc2c(c1)CCCc1cc3ccccc3nc1-2 in this test
F

Query: recorded result category for C[N+]1(CCCl)CC[N+](C)(CCCl)CC1 (stereo unspecified) in this test
F

Query: recorded result category for N=c1c2ccccc2nc2oc3cc([N+](=O)[O-])ccc3n12 in this test
F

Query: recorded result category for CCCc1onc(CCC(=O)N(Cc2ccccc2)Cc2ccccc2)c1CC in this test
F

Query: recorded result category for BrC1(c2ccccc2)C[n+]2c(-c3ccccc3)cc(-c3ccccc3)cc2-c2ccccc21 (stereo unspecified) in this test
T

Query: recorded result category for CCOC(=O)c1sc2nc(SC)nc3c2c1NCN3C1CC1 in this test
F

Query: recorded result category for C/C(=N\NC(N)=O)C(CN1CCCCC1)C(c1ccccc1)c1c(O)c2ccccc2oc1=O (stereo unspecified) in this test
F

Query: recorded result category for C=C1CCCC(C)(C)[C@@H]1CC/C(C)=C/Cn1c2cccc(=O)c-2nc2ccccc21 in this test
F

Query: recorded result category for O=C1c2ccccc2S(=O)(=O)c2cc(-c3nn[nH]n3)ccc21 [DOXANTRAZOLE] in this test
F

Query: recorded result category for CN(C)CCCSc1c2ccccc2nc2cc(NCC(=O)Nc3ccccc3-c3ccccc3NC(=O)CNc3ccc4c(SCCCN(C)C)c5ccccc5nc4c3)ccc12 in this test
F

Query: recorded result category for COC(=O)c1cc(/C=C2\Cc3cc4c(cc3C2=O)CCC4)cc2c1CCC2 in this test
F

Query: recorded result category for C[Si](C)(c1ccccc1)[C@H]1CCCC=C1CCNC1c2ccccc2CCc2ccccc21 in this test
F

---

The entries below come with measured GI50 values attached.
- System: HL-60
- TEST METHOD NOTES: NCI tumour cell line growth inhibition, 48 h
The source made the active and inactive calls. Rule as the data show it: active = GI50 up to about 1.1 µM and inactive = higher.

MOLECULE: O=CNc1ccc2c(c1)C(=O)c1ccccc1-2
GI50: 49.1 µM (inactive)

MOLECULE: CCOC(=O)C(=Cc1ccc(C(=O)OC)cc1)C(=O)OCC
GI50: 1.54 µM (inactive)

MOLECULE: O=C(CO[N+](=O)[O-])OCC(=O)c1ccccc1
GI50: > 100 µM (inactive)

MOLECULE: COCC(=O)OC1CCn2c1nc1c2C(=O)C(C)=C(NC(C)=O)C1=O (stereo unspecified)
GI50: 1.43 µM (inactive)

MOLECULE: O=C(CSc1nnc(-c2ccccn2)s1)N/N=C/c1ccc([N+](=O)[O-])cc1
GI50: > 100 µM (inactive)

Note: attention shifts to another entry.
What value of GI50 has been reported for the following molecule? CCOC1CN=C(Nc2cccc3ccccc23)S1 (stereo unspecified)
> 10 µM (inactive)
